Provenance of the data: patent US20210032365A1

Kindly state KD 5(-)/7(+) for each of the entries shown.
Target: T1, human C1s (human, UniProt P09871 16-688)
T1 construct: also called hC1s; serum-derived human C1s (CompTech)
T1 sequence: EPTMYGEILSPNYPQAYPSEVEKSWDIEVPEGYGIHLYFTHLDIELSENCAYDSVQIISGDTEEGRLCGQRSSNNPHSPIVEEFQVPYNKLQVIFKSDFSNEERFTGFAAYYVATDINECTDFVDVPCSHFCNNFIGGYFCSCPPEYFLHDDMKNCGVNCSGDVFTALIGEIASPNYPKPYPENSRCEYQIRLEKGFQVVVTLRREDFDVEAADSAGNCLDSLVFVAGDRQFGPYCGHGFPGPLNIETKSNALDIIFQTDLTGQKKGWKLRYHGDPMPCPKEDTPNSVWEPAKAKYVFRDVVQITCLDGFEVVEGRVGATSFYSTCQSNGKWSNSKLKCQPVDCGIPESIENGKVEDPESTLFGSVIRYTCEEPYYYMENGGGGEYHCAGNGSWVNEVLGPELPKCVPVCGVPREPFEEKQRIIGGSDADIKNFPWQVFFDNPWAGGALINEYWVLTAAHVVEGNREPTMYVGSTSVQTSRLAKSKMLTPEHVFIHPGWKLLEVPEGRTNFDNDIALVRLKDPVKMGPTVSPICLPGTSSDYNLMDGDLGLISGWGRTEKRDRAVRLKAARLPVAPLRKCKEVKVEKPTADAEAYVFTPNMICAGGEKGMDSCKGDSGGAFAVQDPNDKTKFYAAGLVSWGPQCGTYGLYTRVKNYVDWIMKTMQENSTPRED
Assay: SPR; KD pH 5.8 3 uM Ca / KD pH 7.4 1.2 mM Ca
Answers are plain numbers.

Previously resolved entries follow.
[[record]]
binder = "C1_IPN92H0038-SG4GK/IPN93L0030-SK1 (antibody, human IgG4 S228P, kappa, name in Kabat numbering, V domains shown, also called IPN92H0038/IPN93L0030) VH: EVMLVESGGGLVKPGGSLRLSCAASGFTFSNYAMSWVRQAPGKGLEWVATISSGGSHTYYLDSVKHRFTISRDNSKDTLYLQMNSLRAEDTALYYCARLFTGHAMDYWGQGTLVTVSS VL: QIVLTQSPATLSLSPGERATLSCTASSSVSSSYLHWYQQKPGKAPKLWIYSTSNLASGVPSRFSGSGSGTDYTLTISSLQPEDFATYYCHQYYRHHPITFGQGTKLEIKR"
assay_result = 30.1

[[record]]
binder = "C1_IPN92H0033-SG4GK/IPN93L0031-SK1 (antibody, human IgG4 S228P, kappa, name in Kabat numbering, V domains shown, also called IPN92H0033/IPN93L0031) VH: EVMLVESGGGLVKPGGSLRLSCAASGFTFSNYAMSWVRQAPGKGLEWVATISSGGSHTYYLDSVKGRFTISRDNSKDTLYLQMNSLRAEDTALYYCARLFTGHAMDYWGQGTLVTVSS VL: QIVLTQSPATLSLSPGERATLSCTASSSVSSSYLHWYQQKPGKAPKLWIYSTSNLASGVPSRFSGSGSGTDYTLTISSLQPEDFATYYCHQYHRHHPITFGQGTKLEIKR"
assay_result = 3.9


# input for lookup
Lab book: KD 5(-)/7(+) of C1_IPN009VH2-SG4GK/IPN93L0028-SK1 (antibody, human IgG4 S228P, kappa, name in Kabat numbering, V domains shown, also called IPN009VH2/IPN93L0028) VH: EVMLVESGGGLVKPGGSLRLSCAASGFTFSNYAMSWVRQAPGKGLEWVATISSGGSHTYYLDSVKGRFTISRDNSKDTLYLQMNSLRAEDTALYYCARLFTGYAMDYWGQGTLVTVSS VL: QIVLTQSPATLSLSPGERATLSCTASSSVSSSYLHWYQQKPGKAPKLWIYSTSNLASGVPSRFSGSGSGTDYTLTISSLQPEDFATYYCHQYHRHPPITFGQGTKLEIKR noted as 0.5
